Target: human LXRβ (Homo sapiens)
Construct: expressed in transfected cells; host or cells: HEK293 cells (ATCC CRL-1573), transient transfection with pFA-hLXRβ/GAL4 and pUAS
Sequence (P55055 222-460 limits assumed): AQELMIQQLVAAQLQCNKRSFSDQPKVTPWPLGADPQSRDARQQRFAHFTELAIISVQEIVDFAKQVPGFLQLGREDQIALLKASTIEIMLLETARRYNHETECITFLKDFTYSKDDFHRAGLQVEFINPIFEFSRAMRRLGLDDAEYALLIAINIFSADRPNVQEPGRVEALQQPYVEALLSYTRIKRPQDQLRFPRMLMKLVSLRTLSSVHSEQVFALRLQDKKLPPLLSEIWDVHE
Assay: Assay for Transcriptional Activity of LXRβ (GAL4-hLXRβ LBD luciferase reporter, transient transfection)
Format: cell-based
Settings: fold value in comparison with the control (DMSO-treated group); HEK293 cells transfected with pFA-hLXRβ/GAL4 and pUAS; 24 hours
EXPERIMENTAL_READOUT: Emax (fold)

See these solved cases before continuing.
>>> df
                                   compound                system_name  result_units  value
0  OC(C1=NN(c2ccccc2Cl)C(c2ccc(-c3ccc(F)cc3)cc2)C1)(C(F)(F)F)C(F)(F)F (centres unmarked)  human LXRβ (Homo sapiens)          fold     47
1  CCOc1cccc(-c2ccc(C3CC(C(O)(C(F)(F)F)C(F)(F)F)=NN3c3ccccc3F)cc2)c1 (centres unmarked)  human LXRβ (Homo sapiens)          fold     72
2  OC(C1=NN(c2ccccc2Cl)C(c2ccc(-c3ccc(C(F)(F)F)cc3)cc2)C1)(C(F)(F)F)C(F)(F)F (centres unmarked)  human LXRβ (Homo sapiens)          fold     33
3  CS(=O)(=O)c1ccc(-c2ccc(C3CC(C(O)(C(F)(F)F)C(F)(F)F)=NN3c3ccc(F)cc3F)cc2)cc1C(F)(F)F (centres unmarked)  human LXRβ (Homo sapiens)          fold     26
4  COc1ncc(-c2ccc(C3CC(C(O)(C(F)(F)F)C(F)(F)F)=NN3c3ccc(F)cc3F)cc2)cc1C=O (centres unmarked)  human LXRβ (Homo sapiens)          fold     35
5  OC(C1=NN(c2ccccc2Cl)C(c2ccc(-c3ccc(F)cc3)nc2)C1)(C(F)(F)F)C(F)(F)F (centres unmarked)  human LXRβ (Homo sapiens)          fold     94
6  CN(CCO)S(=O)(=O)c1ccc(-c2cccc(C3CC(C(F)(F)C(F)(F)F)=NN3c3ccc(F)cc3F)c2)cc1 (centres unmarked)  human LXRβ (Homo sapiens)          fold     72
7  CC(C)(C)OC(=O)N1CC=C(c2cccc(N3N=C(C(O)(C(F)(F)F)C(F)(F)F)CC3c3ccccc3Cl)c2)CC1 (centres unmarked)  human LXRβ (Homo sapiens)          fold     13

(P) CC(C)CS(=O)(=O)N1CC=C(c2ccc(C3CC(C(O)(C(F)(F)F)C(F)(F)F)=NN3c3ccccc3Cl)cc2)CC1 (centres unmarked)
(Q) Cc1ccccc1-c1ccc(C2CC(C(O)(C(F)(F)F)C(F)(F)F)=NN2c2ccccc2Cl)c(F)c1 (centres unmarked)
[in] Select the item with the higher value of Emax from the options P and Q listed. // caller expects the label of the chosen entry
[out] Q
(Q: 101 fold, P: 45 fold)

(I) CS(=O)(=O)N1CCN(c2ccc(C3CC(C(O)(C(F)(F)F)C(F)(F)F)=NN3c3ccc(F)cc3F)cc2)CC1 (centres unmarked)
(II) CN(C)C(=O)N1CC=C(c2ccc(C3CC(C(O)(C(F)(F)F)C(F)(F)F)=NN3c3ccc(F)cc3F)cc2)CC1 (centres unmarked)
[in] Of I versus II , which is the one with smaller reported Emax? Write the label of whichever entry you select.
[out] II
(II: 22 fold, I: 53 fold)
